# procedure-summary: Plasma protein binding (background and discussion)
# Assay type: in vitro ADME
# measurement-parameters: without diflunisal, read-out: plasma albumin binding of acetazolamide (converted)
measure: fraction unbound

Problem: GET /values?readout=fraction unbound&item= CC(=O)Nc1nnc(S(N)(=O)=O)s1 [Acetazolamide]
Solution: 0.03 to 0.07

---

# procedure-summary: In vitro plasma binding of acetazolamide with graded concentrations of diflunisal (dialysis)
# Type: in vitro ADME
# measurement-parameters: human, 90 μM acetazolamide, diflunisal 0 μm
measure: fraction unbound at 18 h, 90 µM
Please reply with the number alone, leaving off any unit.

Problem: Entry under review: CC(=O)Nc1nnc(S(N)(=O)=O)s1 [Acetazolamide] . Reported fraction unbound at 18 h, 90 µM?
Solution: 0.07
